# test-system: 5-hydroxytryptamine receptor 1A (Homo sapiens)
# Sequence (P08908 whole entry): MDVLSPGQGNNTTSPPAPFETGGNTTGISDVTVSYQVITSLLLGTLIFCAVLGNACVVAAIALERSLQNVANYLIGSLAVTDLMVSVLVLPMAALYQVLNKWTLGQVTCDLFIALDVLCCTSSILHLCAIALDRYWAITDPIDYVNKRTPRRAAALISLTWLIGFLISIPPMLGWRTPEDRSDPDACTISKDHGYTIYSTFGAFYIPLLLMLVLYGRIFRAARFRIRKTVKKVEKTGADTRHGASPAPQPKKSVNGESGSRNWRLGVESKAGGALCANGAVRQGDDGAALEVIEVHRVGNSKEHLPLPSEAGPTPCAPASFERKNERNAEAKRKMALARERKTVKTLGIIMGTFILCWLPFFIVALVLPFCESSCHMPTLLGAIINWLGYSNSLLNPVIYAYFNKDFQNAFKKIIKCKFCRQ
readout-label: Ki (nM)
# unit: nM | format: bare number

Entry under review: Fc1ccc(Oc2ccccc2N2CCNCC2)cc1 . Reported Ki?
8

What does the record list as Ki for Fc1ccc(COc2ccccc2C2CCNCC2)cc1 ?
77

Reported Ki, compound c1ccc(Oc2ccccc2N2CCNCC2)cc1 : ____
128

What Ki value was documented for this compound, Fc1ccccc1COc1ccccc1C1CCNCC1 ?
47

What measured Ki goes with c1ccc(OCc2ccccc2N2CCNCC2)cc1 ?
189

Entry c1ccc(Oc2ccccc2C2CCNCC2)cc1 : reported Ki = ?
63

What does the record list as Ki for Fc1cccc(OCc2ccccc2N2CCNCC2)c1F ?
101

Give its Ki value. Item: Fc1cccc(C2CCNCC2)c1Oc1ccccc1
20

# Ki lookup, item Cc1ccc(F)c(Oc2ccccc2C2CCNCC2)c1
57

// lookup Ki for Fc1ccc(COc2ccc(F)cc2C2CCNCC2)cc1
2210

Entry under review: Fc1cccc(Oc2ccccc2)c1C1CCNCC1 . Reported Ki?
128

Recorded Ki for Fc1cccc(Oc2cccc(F)c2C2CCNCC2)c1 , please?
21

May I ask what Ki has been recorded for Clc1cccc(Oc2ccccc2C2CCNCC2)c1 ?
5

Quick check: Ki of Fc1cccc(Oc2ccccc2N2CCNCC2)c1 ?
9

What Ki value was documented for this compound, c1ccc(N2CCNCC2)c(COc2ccccc2C2CC2)c1 ?
466

# Ki lookup, item Fc1cccc(OCc2ccccc2N2CCNCC2)c1
116

// Ki lookup, key: Fc1ccccc1COc1ccccc1N1CCNCC1
31

Could you share which Ki value was measured for c1ccc(COc2ccccc2N2CCNCC2)cc1 ?
28
